Below, each of the variants is paired with its reported self-cleavage value.
B1: LINE1-mini (parent)
chain: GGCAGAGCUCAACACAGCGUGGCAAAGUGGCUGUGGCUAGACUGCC

# Variants of: B1
# Experimental protocol: self-cleavage, relative activity (ratio to wild type); higher = more cleavage; in vitro, sequencing; the parent is a self-cleaving ribozyme
Metric: self-cleavage

INSERT INTO results (mutant_code, metric, recorded_result) VALUES
  ('A4C U9G', 'self-cleavage', 0.24),
  ('A6C A25C', 'self-cleavage', 0.5),
  ('A25G G33C', 'self-cleavage', 0.04),
  ('A11U G27C', 'self-cleavage', 0.14),
  ('G35U G36A', 'self-cleavage', 0.16),
  ('A4G C23U', 'self-cleavage', 0.5),
  ('C10A G27A', 'self-cleavage', 0.06),
  ('A4U A14G', 'self-cleavage', 0.15),
  ('C10A A16G', 'self-cleavage', 0.07),
  ('C15G G36A', 'self-cleavage', 0.06),
  ('A6C A11U', 'self-cleavage', 0.1),
  ('A11G C46A', 'self-cleavage', 0.04),
  ('C13A', 'self-cleavage', 0.15),
  ('G2C G7C', 'self-cleavage', 0.14),
  ('G40A U43G', 'self-cleavage', 0.09),
  ('G1C C18A', 'self-cleavage', 0.04),
  ('A11G G30A', 'self-cleavage', 0.04),
  ('A11C A25C', 'self-cleavage', 0.09),
  ('G7A G29A', 'self-cleavage', 0.09),
  ('C37G G44C', 'self-cleavage', 0.03),
  ('C18G G44A', 'self-cleavage', 0.07),
  ('G27C A41C', 'self-cleavage', 0.03),
  ('C31A C37G', 'self-cleavage', 0.07),
  ('A11G A41C', 'self-cleavage', 0.03),
  ('U38G A39U', 'self-cleavage', 0.13),
  ('C8G U38A', 'self-cleavage', 0.06),
  ('U20G U34C', 'self-cleavage', 0.39),
  ('G33U U43A', 'self-cleavage', 0.12),
  ('G33U G44A', 'self-cleavage', 0.07),
  ('G22C A25U', 'self-cleavage', 1.23),
  ('A26G U38A', 'self-cleavage', 0.52),
  ('A4U U34C', 'self-cleavage', 0.08),
  ('G35C C42A', 'self-cleavage', 0.1),
  ('C18G A25C', 'self-cleavage', 0.2),
  ('A16U C31A', 'self-cleavage', 0.21),
  ('A26C C45G', 'self-cleavage', 0.8),
  ('A24G A26U', 'self-cleavage', 1.28),
  ('G1U U34C', 'self-cleavage', 0.06),
  ('C13U A39G', 'self-cleavage', 0.11),
  ('G7U A16C', 'self-cleavage', 0.09),
  ('C10G G33A', 'self-cleavage', 0.03),
  ('U32G G35C', 'self-cleavage', 0.1),
  ('U38C G44C', 'self-cleavage', 0.32),
  ('G36U C42A', 'self-cleavage', 0.06),
  ('G2C A25G', 'self-cleavage', 0.06),
  ('A41C U43C', 'self-cleavage', 0.08);

The reported numbers originate from the RNAGym collection of RNA variant scans (doi:10.7554/elife.90254).
